Recorded differential viability (reversal) values for a group of compounds are listed next.
- Test Protocol: MRP1 drug-resistance reversers in H69AR cells – cell-based, doxorubicin co-treatment, pilot screen (AID 601)
- Condition Notes: H69AR cells + 2 uM doxorubicin, CellTiter-Glo, 72 h; at 10 µM; hits give high values
All answers are understood in %, so give the number only.

Please review the entries below; each comes with its answer.
- Compound: "COC(=O)c1cn(NC(=O)C2CCCO2)c(=O)c2ccccc12 (centres undefined)"
  Reading Unit: "%"
  differential viability (reversal): 4.83
- Compound: "Cc1cccc(Cc2c(C)nc3nc(SCC(=O)NCc4ccco4)nn3c2C)c1"
  Reading Unit: "%"
  differential viability (reversal): -27.8
- Compound: "CCOc1ccc(NC2c3ccccc3C(=O)N2Cc2ccco2)cc1 (centres undefined)"
  Reading Unit: "%"
  differential viability (reversal): -2.58

Q: So what does the record say about differential viability (reversal) for `CCn1c2ccccc2c2cc(Nc3cc(C)nc4ncnn34)ccc21` ?
Ans: -28

---

- Test Protocol: H69AR cell proliferation blockers – human, duplicate replicates, primary screen (AID 580);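 further: 100% = mean luminescence of untreated wells and 0% = no signal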
- Condition Notes: H69AR lung tumor cells viability, ATP luminescence, 72 h; at 10 µM; hits give low values
Reported Metric: viability (%)
All answers are understood in %, so give the number only.

Q: So what does the record say about viability for Cc1cc(NC(=O)CSc2nc3c(c(=O)n2Cc2ccccc2)SC(C)C3)no1 (stereo unspecified) ?
Ans: 92.1

Q: So what does the record say about viability for `O=C(NCCSc1c[nH]c2ccccc12)c1ccco1` ?
Ans: 65.1

Q: So what does the record say about viability for COC(=O)C(C)Sc1nc2c(c(=O)n1-c1ccccc1)SCC2 (stereo unspecified) ?
Ans: 94.9

Q: So what does the record say about viability for CCOC(=O)C1=C(C)N(C)C(=O)NC1c1cccc(O)c1 (stereo unspecified) ?
Ans: 86.9

Q: So what does the record say about viability for COC(=O)CN1C(=O)C(O)(CC(=O)c2ccc(Cl)cc2)c2ccccc21 (stereo unspecified) ?
Ans: 70.5

Q: So what does the record say about viability for CCN1CCN(C(c2cccs2)C(C)NC(=O)c2ccccc2)CC1 (stereo unspecified) ?
Ans: 87.3

---

Recorded viability increase values for a group of compounds are listed next.
- Test Protocol: doxorubicin toxicity protection in MRP-1 cells – H69AR cells, CellTiter-Glo, duplicate, MRP-1 activator project, pilot screen (AID 807);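 further: compound pretreatment 18-22 h then 72 h combined with doxorubicin; 0% = doxorubicin alone and 100% = vehicle without doxorubicin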
- Condition Notes: H69AR viability with doxorubicin, CellTiter-Glo luminescence; at 10 µM; hits give high values
All answers are understood in %, so give the number only.

- Compound: "Cc1ccc(C(=O)CC2(O)C(=O)N(C)c3ccc(Br)cc32)c(C)c1 (stereo not given)"
  viability increase / %: -4.61
- Compound: "O=C(Nc1ccncc1)c1cccc(F)c1"
  viability increase / %: -1.19
- Compound: "CC1CN(Cc2nc3c(c(=O)n(C)c(=O)n3C)n2Cc2ccccc2)CC(C)O1 (stereo not given)"
  viability increase / %: -0.81

Q: So what does the record say about viability increase for COc1ccc(C2CC(c3ccc(Cl)cc3Cl)n3nc(N)nc3N2)cc1 (stereo not given) ?
Ans: 3.63

Q: So what does the record say about viability increase for O=C(NC(C(=O)c1ccccc1)N1CCOCC1)c1ccccc1 (stereo not given) ?
Ans: -2.37

Q: So what does the record say about viability increase for `O=C(c1ccc(=O)[nH]c1)N(Cc1ccco1)C1(C(=O)NC2CCCC2)CCCCC1` ?
Ans: -2

Q: So what does the record say about viability increase for `COc1ccc(S(=O)(=O)Nc2ccc3c(c2)OCO3)cc1C(=O)O` ?
Ans: -1.95

Q: So what does the record say about viability increase for `Cc1ccc2cccc(SCC(=O)N3CCOCC3)c2n1` ?
Ans: -2.53

Q: So what does the record say about viability increase for `c1ccc2c(c1)nc(NC1CCCCC1)c1nncn12` ?
Ans: -6.65

Q: So what does the record say about viability increase for CCCCN(C)C(=O)C(Cc1ccccc1)NS(=O)(=O)c1ccc2c(c1)CCC(=O)N2 (stereo not given) ?
Ans: -2.47

Q: So what does the record say about viability increase for `CCCCS(=O)(=O)NC1=NCN(CCOC(=O)c2ccccc2)CN1` ?
Ans: -2.67

Q: So what does the record say about viability increase for `CCOC(=O)c1nc2sc3c(c2c(=O)[nH]1)CCCC3` ?
Ans: -1.32

Q: So what does the record say about viability increase for `CN(CCC#N)C(=O)Cn1nc(Cc2ccncc2)c2ccccc2c1=O` ?
Ans: 0.95

Q: So what does the record say about viability increase for COc1ccc(NC(=O)C2CCCCN2S(=O)(=O)c2ccc(F)cc2)cc1 (stereo not given) ?
Ans: -1.3

Q: So what does the record say about viability increase for COc1ccc(CNC(=O)c2ccc3c(c2)N(C)C(=O)CS3=O)cc1 (stereo not given) ?
Ans: 1.48

Q: So what does the record say about viability increase for `Cc1noc(C)c1S(=O)(=O)N1CCC(C(=O)N2CCC(N3CCCCC3)CC2)CC1` ?
Ans: 0.18

---

Recorded RAM network inhibition values for a group of compounds are listed next.
- Test Protocol: RAM signaling pathway blockade in yeast – S. cerevisiae, Pdr1DBD-CYC8 efflux-inhibited sensitized strain, primary screen (AID 1298);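 further: 0% = DMSO untreated cells without growth and 100% = 10 µM 1-NA-PP1 full growth; higher means more yeast growth rescued from 5-FOA killing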
- Condition Notes: S. cerevisiae cbk1-as DSE1-URA3 strain, 5-FOA growth OD615, 2 d; at 50 µM; hits give high values
All answers are understood in %, so give the number only.

Please review the entries below; each comes with its answer.
- Compound: "COc1ccc(N2C(=O)C3CCCN3C2c2cccc(C)c2)cc1 (stereo not drawn)"
  Reading Unit: "%"
  RAM network inhibition: -1.25
- Compound: "COc1ccc(Cc2nnc(SCC(=O)NC(C)c3ccccc3)o2)cc1 (stereo not drawn)"
  Reading Unit: "%"
  RAM network inhibition: 4.19
- Compound: "Cc1cc2cc(CCNC(=O)CC(C)C)c(=O)[nH]c2cc1C"
  Reading Unit: "%"
  RAM network inhibition: 0.73

Q: So what does the record say about RAM network inhibition for CC1Cn2c(nnc2-c2ccccc2O)S1 (stereo not drawn) ?
Ans: 5.23

Q: So what does the record say about RAM network inhibition for `O=C(C1CCN(S(=O)(=O)c2cccc3cccnc23)CC1)N1CCN(C2CCCCC2)CC1` ?
Ans: 7.73

Q: So what does the record say about RAM network inhibition for `CC(=O)n1cc(-c2ccncc2)c2ccccc21` ?
Ans: 0.27

Q: So what does the record say about RAM network inhibition for `Cc1cccc(-n2ncc3c(NCCCn4ccnc4)ncnc32)c1` ?
Ans: -0.32

Q: So what does the record say about RAM network inhibition for `Cc1cc(C)nc(SCc2csc(N)n2)n1` ?
Ans: 4.19

---

Recorded growth inhibition values for a group of molecules are listed next.
- Test Protocol: S. cerevisiae growth inhibition in restrictive medium, OD615, pilot screen, restrictive growth control, yeast lifespan reduction project (AID 706);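 further: modified DeaD lifespan yeast strain shifted to restrictive glucose medium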
- Condition Notes: OD615, 48 h, at 10 µM, hits give high values
All answers are understood in %, so give the number only.

Please review the entries below; each comes with its answer.
- Molecule: "Cn1c(=O)c2c(nc(CN3CCN(Cc4ccccc4)CC3)n2Cc2ccc(Cl)cc2)n(C)c1=O"
  Reported Metric: "growth inhibition"
  Val: -13.5
- Molecule: "CC1(C(=O)NC2CCCCC2)CCC(=O)N1Cc1cccs1 (configuration not stated)"
  Reported Metric: "growth inhibition"
  Val: -15.9
- Molecule: "CN(C)CCCN1C(=O)CSC1c1ccccc1 (configuration not stated)"
  Reported Metric: "growth inhibition"
  Val: -1.53
- Molecule: "CC1=C(C(=O)Nc2ccccc2)C(c2ccccn2)n2nc(CCCO)nc2N1 (configuration not stated)"
  Reported Metric: "growth inhibition"
  Val: -8.68
- Molecule: "CCCCN(C)C(=O)c1ccc(CS(=O)(=O)c2ccccc2C)o1"
  Reported Metric: "growth inhibition"
  Val: 14.7

Q: So what does the record say about growth inhibition for `CC(C)n1c(=O)[nH]c2ccccc21` ?
Ans: -9.29

Q: So what does the record say about growth inhibition for Cc1ccc(S(=O)(=O)N(CC(O)CN2CCCCC2)c2ccccc2)cc1 (configuration not stated) ?
Ans: 0.56

---

- Test Protocol: S. cerevisiae growth inhibition in restrictive medium, OD615, pilot screen, restrictive growth control, yeast lifespan reduction project (AID 706);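 further: modified DeaD lifespan yeast strain shifted to restrictive glucose medium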
- Condition Notes: OD615, 48 h, at 10 µM
Active and inactive are the calls of the source.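 Rule for the calls: active = growth inhibition above a set limit, 3 SD over mean compound inhibition, in both replicates (cut at about 43% in these data); inconclusive = above the limit in only one replicate; inactive = at or below the limit in both replicates.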
Can you answer with just one of these options? t for active, f for inactive

Example entries and their recorded answers appear below.
- Compound: "O=C(Cn1cc2c(n1)CCCCC2)N1CCc2ccccc21"
  Assigned Category: "f"
- Compound: "Cc1ccc(C(C(=O)NC2CCCCC2)N2CCOCC2)cc1 (stereo not drawn)"
  Assigned Category: "f"
- Compound: "CC1CCCN(C(=O)c2cc3c(-c4ccc(Cl)cc4)nn(C)c3s2)C1 (stereo not drawn)"
  Assigned Category: "f"
- Compound: "Cc1ccc(-c2nc(CSCC(=O)N3CCN(C(=O)c4ccco4)CC3)c(C)o2)cc1"
  Assigned Category: "f"
- Compound: "CCN1C(=O)C(O)(CC(=O)c2ccc3c(c2)OCCO3)c2ccccc21 (stereo not drawn)"
  Assigned Category: "f"

Q: What classification did CC1CCC(NC(=O)C2(C)CCC(=O)N2Cc2cccnc2)CC1 (stereo not drawn) end up with in this test?
Ans: f

Q: What classification did `COc1ccc(NC(=O)CN(c2cc(C)cc(C)c2)S(=O)(=O)c2c(C)noc2C)cc1OC` end up with in this test?
Ans: f

Q: What classification did `CSc1cccc(NS(=O)(=O)c2ccc3c(c2)oc(=O)n3C)c1` end up with in this test?
Ans: f

Q: What classification did `Cn1cccc1Cc1nnc(SCC(=O)NCc2ccc(F)cc2)n1-c1ccc(F)cc1` end up with in this test?
Ans: f

Q: What classification did `COc1ccc(-n2c(Cc3cccn3C)nnc2SCC(=O)Nc2ccccc2C)cc1` end up with in this test?
Ans: f
